Each recorded value in this set is attributed to the supplement of paper PMC10724198.

system: Saccharomyces cerevisiae; assay: protein stability index of tFT-peptide fusion in deletion strain of DAS1 (PSI (0-1 scale)); higher = more stable (slower turnover);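 further: PSI is a weighted mean of each variant's read distribution over the sorted stability bins, computed only for variants having over 10 reads in total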

input_sequence: LKILRQKMNHQNL
protein stability index: 0.697
//
input_sequence: FSMRWTFRQWVN
protein stability index: 0.427
//
input_sequence: VKILRQKMNHQN
protein stability index: 0.67
//
input_sequence: VRTAVGGWRLVG
protein stability index: 0.678
//
input_sequence: ARWRVGLWWGAS
protein stability index: 0.679
//
input_sequence: LVVYLSCVWCIN
protein stability index: 0.263
//
input_sequence: LKILRQKMPHQN
protein stability index: 0.692
//
input_sequence: LKILRQKMNHYN
protein stability index: 0.657
//
input_sequence: VRGAVGGWRLVS
protein stability index: 0.686
//
input_sequence: LKILSQKMNHQN
protein stability index: 0.681
//
input_sequence: FSMFWTFRYWVN
protein stability index: 0.403
//
input_sequence: LVVYLSDVACIN
protein stability index: 0.495
//
input_sequence: ARWRVGLWRGASA
protein stability index: 0.672
//
input_sequence: PDKRNHLCKLLN
protein stability index: 0.665
//
input_sequence: CFSCGYKFRTNN
protein stability index: 0.682
//
input_sequence: VRGAVGGWSLVG
protein stability index: 0.689
//
input_sequence: LVVQLSCVACIN
protein stability index: 0.0857
//
input_sequence: PSLAASFLRVVG
protein stability index: 0.642
//
input_sequence: PSLAASFWRVVK
protein stability index: 0.688
//
input_sequence: FSMRWTFTYWVN
protein stability index: 0.389
//
input_sequence: PRWRVGLWRGAS
protein stability index: 0.707
//
input_sequence: LVVYLSCVAIIN
protein stability index: 0.0381
//
input_sequence: VRGAVGGLRLVG
protein stability index: 0.681
//
input_sequence: RLIQPLPVQFLNW
protein stability index: 0.686
//
input_sequence: KKHKIGQKQKIN
protein stability index: 0.563
//
input_sequence: LKILRFKMNHQN
protein stability index: 0.667
//
input_sequence: LVVELSCVACIN
protein stability index: 0.0632
//
input_sequence: FSMRWTFRDWVN
protein stability index: 0.724
//
input_sequence: LVFYLSCVACIN
protein stability index: 0.0573
//
input_sequence: LVVALSCVACIN
protein stability index: 0.0802
//
input_sequence: VRGAEGGWRLVG
protein stability index: 0.686
//
input_sequence: ARWRYGLWRGAS
protein stability index: 0.678
//
input_sequence: RLIQPLPTQFLN
protein stability index: 0.638
//
input_sequence: RLSQPLPVQFLN
protein stability index: 0.607
//
input_sequence: ARWRVHLWRGAS
protein stability index: 0.695
//
input_sequence: FSMRWTFRYFVN
protein stability index: 0.631
//
input_sequence: PDDRNHLIKLLN
protein stability index: 0.594
//
input_sequence: LVDYLSCVACIN
protein stability index: 0.354
//
input_sequence: PSLAASRWRVVG
protein stability index: 0.682
//
input_sequence: CKILRQKMNHQN
protein stability index: 0.675
//
input_sequence: PSLAASFFRVVG
protein stability index: 0.654
//
input_sequence: PDKRNHLMKLLN
protein stability index: 0.592
//
input_sequence: KKHKKDQKQKIN
protein stability index: 0.606
//
input_sequence: VRGAVGGWTLVG
protein stability index: 0.664
//
input_sequence: GSMRWTFRYWVN
protein stability index: 0.677
//
input_sequence: VRGAVKGWRLVG
protein stability index: 0.68
//
input_sequence: PDKRNKLIKLLN
protein stability index: 0.671
//
input_sequence: VRGAVGGWMLVG
protein stability index: 0.698
//
input_sequence: PSLAAYFWRVVG
protein stability index: 0.677
//
input_sequence: PDKRNILIKLLN
protein stability index: 0.598
//
input_sequence: LVVFLSCVACIN
protein stability index: 0.0386
//
input_sequence: VRNAVGGWRLVG
protein stability index: 0.674
//
input_sequence: PSLAAWFWRVVG
protein stability index: 0.706
//
input_sequence: RLIQPLPVHFLN
protein stability index: 0.587
//
input_sequence: KKHKKGQKQWIN
protein stability index: 0.657
//
input_sequence: KKHEKGQKQKIN
protein stability index: 0.603
//
input_sequence: PDKRNHLIKKLN
protein stability index: 0.581
//
input_sequence: ARWRVGEWRGAS
protein stability index: 0.684
//
input_sequence: VRGAVGGWRIVG
protein stability index: 0.678
//
input_sequence: FSMRWTSRYWVN
protein stability index: 0.598
//
input_sequence: VRGALGGWRLVG
protein stability index: 0.669
//
input_sequence: YLIQPLPVQFLN
protein stability index: 0.624
//
input_sequence: RLIQPLPVQFLC
protein stability index: 0.566
//
input_sequence: FSMRFTFRYWVN
protein stability index: 0.501
//
input_sequence: PSLAASFQRVVG
protein stability index: 0.672
//
input_sequence: LKNLRQKMNHQN
protein stability index: 0.678
//
input_sequence: PDKRNHLWKLLN
protein stability index: 0.601
//
input_sequence: ARWRVGLDRGAS
protein stability index: 0.687
//
input_sequence: CTSCGYKFWTNN
protein stability index: 0.75
//
input_sequence: FKHKKGQKQKIN
protein stability index: 0.586
//
input_sequence: KKHKKGQKQKIQ
protein stability index: 0.594
